Values from patent US20140303084A1

target: human Factor IXa (human, UniProt P00740 47-191; P00740 227-461); experiment: cell-based or functional assay
Square brackets hold non-standard residues; d marks the D form. Primed or numbered codes have the meaning given here. Ends that are not written are not given here. PEG4(3) = not defined here
Measured EC50 [µM], FXa generation assay, listed per entry for reference.

{"binder": "[dR]RAPGKLTCLASYCWLFWTGIA[PEG4(3)]C(N‑PEG5k maleimide) (cysteine pairing not given here) [rRAPGKLTCLASYCWLFWTGIA-PEG4-C(N-PEG5k maleimide)]", "endpointResult": "> 1 µM"}
{"binder": "VGSGDERALPSRASGKLTCLASYCWLFWTGIA [VGSGDERALP SRASG KLTCLASYCWLFWTGIA]", "endpointResult": "< 0.5 µM"}

Okay, now this binder:
Using the record for RRAPGKLTCLASYCWLFWTG[MeIle]A (not fully specified (C-terminus, bridges); printed as RRAPGKLTCLASYCWLFWTG-MeIle-A; cysteine pairing not given here) [RRAPGKLTCLASYCWLFWTG-MeIle-A] , state its measured EC50 [µM], FXa generation assay.
> 4 µM
